assay_target: T1, human GIPR (human, UniProt P48546 22-466)
T1 sequence (looked up): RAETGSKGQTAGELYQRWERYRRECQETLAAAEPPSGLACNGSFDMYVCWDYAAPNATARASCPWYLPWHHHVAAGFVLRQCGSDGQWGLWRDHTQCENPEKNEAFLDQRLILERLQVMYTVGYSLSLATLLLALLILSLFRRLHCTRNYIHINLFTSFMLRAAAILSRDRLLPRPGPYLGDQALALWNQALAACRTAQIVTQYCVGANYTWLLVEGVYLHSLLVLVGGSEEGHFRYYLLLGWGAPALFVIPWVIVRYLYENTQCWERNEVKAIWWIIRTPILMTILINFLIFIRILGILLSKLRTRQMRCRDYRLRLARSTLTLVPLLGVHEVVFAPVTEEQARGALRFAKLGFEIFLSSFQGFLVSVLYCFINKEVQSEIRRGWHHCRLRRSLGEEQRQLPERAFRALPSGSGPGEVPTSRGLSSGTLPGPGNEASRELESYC
assay_name: cell-based or functional assay
Starred links: 1 amine or outer side, 2 acyl side, 3 side chain; linkers in the order of their positions; H or OH if unused. Non-standard residues stand in square brackets, D forms with d. Groups on a side chain read outwards from the residue. No end group written: not given here. *: point of attachment. γGlu = O=C(O)[C@H](CCC(=O)[*:2])N[*:1]; Palmitoyl = CCCCCCCCCCCCCCCC(=O)*; acyl = not defined here; Aib = CC(C)(N)C(=O)O
// values below are reported GIPR pEC50

Previously resolved entries follow.
{"binder": "FXEGTFISDYXIAXDKIHQQDFVNWLLAQKGKKNDWKHNITQ (Aib at 2; X* = 1-amino,1-cyclopentane carboxylic acid at 11; Nle at 14; C-terminal -OH) [Compound No. 9]", "recorded_result": 11.4}
{"binder": "Ac-YAEGTFISDYSIAMDKIHQQDFVNWLLAQKGKKNDWKHNIIQ-OH [Compound No. 1]", "recorded_result": 11}
{"binder": "Y[Aib]EGTFISDYSIAMDKK([γGlu-Palmitoyl])HQQDFVNWLLAQKGKKNDWKHNIIQ-OH (not fully specified; also: acyl given as C16DA in synthesis) [Compound No. 5]", "recorded_result": 11.9}
{"binder": "YAEGTFISDYSIAMDKIHQQDFVNWLLAQKGKKNDWKHNIIQ (Lys-(palmitoyl acyl fatty acid acyl) at 16; C-terminal -NH2) [Compound No. 3]", "recorded_result": 9.5}
{"binder": "Y[Aib]EGTFTSDYSI[Aib]LDKIAQRAFVQWLIA[Aib]KGKKQEWKHQITQK(acyl)-NH2 (reading uncertain; also: Lys43 acylated, acyl not given here) [Compound No. 16]", "recorded_result": 12}
{"binder": "YXEGTFISDYSIXXDKIHQQDFVNWLLAQKGKKNDWKHNITQ (3,5-diBr-Tyr at 1; Aib at 2; Aib at 13; Nle at 14; C-terminal -OH) [Compound No. 8]", "recorded_result": 10.7}

*Q* Tell us which GIPR pEC50 value is on record for Y[dA]EGTFISDYSIAMDKIHQQDFVNWLLAQKGKKNDWKHNIIQ-NH2 [Compound No. 14]
*A* 12.3
